Data credit: ChEMBL document CHEMBL5113443

We begin with a simple list: items and their reported Activity.
target: DNA repair protein RAD51 homolog 1 (Homo sapiens); experiment: Binding affinity to RAD51 (158 to 180 residues) (unknown origin) assessed as random coil content at 15 uM by circular dichroism spectroscopy (reference value: 39.2%)
Where a SMILES comes first, the peptide text is derived from it. The star is where a group is joined. X5 = O=C(c1ccc[n+]([O-])c1)*; Nicotinoyl = O=C(c1cccnc1)*; X6 = O=C(c1cccnc1S)*
Provide only the numeric value, understood in %.

Examples from the recorded data:
CC(C)C[C@H](NC(=O)[C@H](Cc1ccc(O)cc1)NC(=O)c1cccnc1S)C(=O)N[C@@H](CCC(N)=O)C(=O)N[C@@H](CC(N)=O)C(=O)N[C@H](C(=O)N[C@@H](Cc1ccccc1)C(=O)N[C@@H](CCCCN)C(=O)N[C@H](C(=O)N[C@@H](CO)C(=O)N[C@@H](CCCCN)C(=O)N[C@@H](CCCNC(=N)N)C(=O)N[C@@H](CCC(N)=O)C(=O)N[C@@H](CO)C(=O)N[C@@H](Cc1ccccc1)C(=O)N[C@@H](C)C(=O)N1CCC[C@H]1C(N)=O)C(C)C)[C@@H](C)O (X6-YLQNTFKVSKRQSFAP-NH2); 24.2
CC(C)C[C@H](NC(=O)[C@H](Cc1ccc(O)cc1)NC(=O)c1cccnc1)C(=O)N[C@@H](CCC(N)=O)C(=O)N[C@@H](CC(N)=O)C(=O)N[C@H](C(=O)N[C@@H](Cc1ccccc1)C(=O)N[C@@H](CCCCN)C(=O)N[C@H](C(=O)N[C@@H](CO)C(=O)N[C@@H](CCCCN)C(=O)N[C@@H](CCCNC(=N)N)C(=O)N[C@@H](CCC(N)=O)C(=O)N[C@@H](CO)C(=O)N[C@@H](Cc1ccccc1)C(=O)N[C@@H](C)C(=O)N1CCC[C@H]1C(N)=O)C(C)C)[C@@H](C)O (Nicotinoyl-YLQNTFKVSKRQSFAP-NH2); 22.6

// below: Activity requested for another compound
query: # value lookup — system DNA repair protein RAD51 homolog 1 (Homo sapiens), readout Activity, item CC(C)C[C@H](NC(=O)[C@H](Cc1ccc(O)cc1)NC(=O)c1ccc[n+]([O-])c1)C(=O)N[C@@H](CCC(N)=O)C(=O)N[C@@H](CC(N)=O)C(=O)N[C@H](C(=O)N[C@@H](Cc1ccccc1)C(=O)N[C@@H](CCCCN)C(=O)N[C@H](C(=O)N[C@@H](CO)C(=O)N[C@@H](CCCCN)C(=O)N[C@@H](CCCNC(=N)N)C(=O)N[C@@H](CCC(N)=O)C(=O)N[C@@H](CO)C(=O)N[C@@H](Cc1ccccc1)C(=O)N[C@@H](C)C(=O)N1CCC[C@H]1C(N)=O)C(C)C)[C@@H](C)O (X5-YLQNTFKVSKRQSFAP-NH2)
result: 32.2
